Where do these numbers come from? They come from PubChem BioAssay (NCATS).

Test: qHTS of pediatric cancer cell lines to identify multiple opportunities for drug repurposing: Primary screen for BT-12 cells (AID 1347101); further: nearly all actives have a fitted effect of over 25% in size; further: potency means the concentration at half of the fitted maximal effect
Details: BT-12 viability, CellTiter-Glo luminescence, 48 h; series mostly up to 57.3 µM
Records with an inconclusive call do not appear. Active and inactive are the calls of the source. The call rests on the fitted dose curve; in most records, active means well fitted cell-killing curve with a large enough effect; inconclusive means small, poorly fitted or top-dose-only effect; inactive means flat fitted curve, though single readings scatter.
experimentalReadout: Potency

Solved entries (count: 8):
COc1cc([C@@H]2c3cc4c(cc3[C@H](O)[C@H]3COC(=O)[C@@H]23)OCO4)cc(OC)c1OC | 0.273 µM (active)
CC(Oc1ccc(O)cc1)(P(=O)(O)O)P(=O)(O)O | inactive
COc1cc2c(Nc3ccc(Cl)c(Cl)c3F)ncnc2cc1OCC1C[C@@H]2CN(C)C[C@H]2C1 | 24.3 µM (active)
N#Cc1c(NC(=O)c2cccc3ccccc23)sc2c1CCCC2 | 1.09 µM (active)
CON=C(C(=O)N[C@@H]1C(=O)N2C(C(=O)O)=C(CSC(=O)c3ccco3)CS[C@H]12)c1csc(N)n1 | inactive
COc1ccc(Nc2nccc(NCCO)n2)cc1 | inactive
CCN(CC)CCCCNc1ncc2c(n1)N(C)C(=O)N(c1c(Cl)c(OC)cc(OC)c1Cl)C2 | 17.2 µM (active)
O=C(CCCCCCC(=O)Nc1cccnc1)NO | 10.9 µM (active)

For each of the items listed, what is its Potency?
1. CN(C)c1ccc(C(=O)NCCCCCCC(=O)NO)cc1
2. C[C@]12C=CC(=O)N[C@@H]1CC[C@H]1[C@H]3CC[C@@H](C(=O)Nc4cc(C(F)(F)F)ccc4C(F)(F)F)[C@@]3(C)CC[C@@H]12
3. CCNC(=O)c1cc2c(-c3cc(OCCN4CCCC4)c(Cl)cc3Cl)nc(N)nc2s1
4. CCS(=O)(=O)Nc1ccc2[nH]c(O)c(C(=Nc3ccc(CN4CCCCC4)cc3)c3ccccc3)c2c1
5. CCc1cc(C(C)=NOCc2ccc(C3CCCCC3)c(C(F)(F)F)c2)ccc1CN1CC(C(=O)O)C1
6. COc1ccc(C[C@@H](C)[C@@H](C)Cc2ccc(OC)c(OC)c2)cc1OC
7. CC(=O)O[C@H]1C[C@@H]2CC[C@H]3[C@H]4C[C@H]([N+]5(C)CCCCC5)[C@@H](OC(C)=O)[C@@]4(C)CC[C@@H]3[C@@]2(C)C[C@H]1[N+]1(C)CCCCC1

Return:
["1.53 µM (active)", "inactive", "inactive", "21.7 µM (active)", "3.06 µM (active)", "0.863 µM (active)", "inactive"]

Batch lookup, Potency per entry.
1. COc1cc(N2CCC(C(N)=O)CC2)ccc1Nc1nc(N)c(Cl)c(Nc2ccccc2S(=O)(=O)C(C)C)n1
2. O=C1NC(=O)[C@@H](c2cn3c4c(cccc24)CCC3)[C@H]1c1c[nH]c2ccccc12
3. CCOC(=O)N1CCN([N+]([O-])=NOc2ccc([N+](=O)[O-])cc2C#N)CC1
4. CC(C)(O)Cn1c(NC(=O)c2ccc(-c3cn[nH]c3)s2)nc2cc(CN3CCOCC3)ccc21
5. O=C(Nc1ccc(Oc2ccnc3[nH]ccc23)c(F)c1)c1cccn(-c2ccc(F)cc2)c1=O
6. CCCCCCCCc1ccc(CCC(N)(CO)CO)cc1
7. O=C(O)C=Cc1ccc(Cn2ccnc2)cc1
8. COc1ccc2cc([S+]([O-])Cc3ncc(C)c(OC)c3C)nc2c1

Return:
1: inactive; 2: 2.17 µM (active); 3: 3.06 µM (active); 4: 3.43 µM (active); 5: inactive; 6: 21.7 µM (active); 7: inactive; 8: inactive
